Data provenance is patent US20250114324A1.

test: in vivo; conditions: male, Sprague-Dawley, rat, po, 50 mg/kg

| compound | MRT |
| --- | --- |
| O=c1c(O)c(-c2ccc(O)c(O)c2)oc2cc(O)cc(O)c12 [Q] | 12.1 h |

###

test: in vivo; conditions: male, Sprague-Dawley, rat, po, 50 mg/kg, AUCo→∞

| molecule | AUC |
| --- | --- |
| O=c1c(O)c(-c2ccc(O)c(O)c2)oc2cc(O)cc(O)c12 [Q] | 15300 ng·h/mL |

###

test: in vivo; details: male, Sprague-Dawley, rat, po, 50 mg/kg, AUCo→24 h
reported.property: AUC (ng·h/mL)

| record.smiles | reported.property | unit.spec | meas.value |
| --- | --- | --- | --- |
| O=c1c(O)c(-c2ccc(O)c(O)c2)oc2cc(O)cc(O)c12 | AUC | ng·h/mL | 14600 |

###

assay: in vivo; details: male, Sprague-Dawley, rat, po, 50 mg/kg
reported.property: Tmax (h)

| record.smiles | reported.property | meas.value |
| --- | --- | --- |
| O=c1c(O)c(-c2ccc(O)c(O)c2)oc2cc(O)cc(O)c12 | Tmax | 2 |

###

assay: in vivo; details: male, Sprague-Dawley, rat, po, 50 mg/kg

| compound | Cmax / ng/mL |
| --- | --- |
| O=c1c(O)c(-c2ccc(O)c(O)c2)oc2cc(O)cc(O)c12 [Q] | 964 |

###

assay: Pharmacokinetics and bioavailability of Q after oral administration to rats; conditions: male, Sprague-Dawley, rat, in vivo, 50 mg/kg

| compound | half-life [min] |
| --- | --- |
| O=c1c(O)c(-c2ccc(O)c(O)c2)oc2cc(O)cc(O)c12 [Q] | 1000 |
